# reported abundance fitness; entries follow
B1: Unconventional myosin-Ie, residues 1051 to 1108; numbered along this chain, Q12965 (parent)
chain: PQVPQCKALYAYDAQDTDELSFNANDIIDIIKEDPSGWWTGRLRGKQGLFPNNYVTKI

- Variants of: B1
- testProtocol: abundance fitness (aPCA) (normalised: wild type 0, dead -1); higher = more abundant; growth selection in yeast, the domain comes from the species named
- conditionNotes: Homo sapiens
quantityKind: abundance fitness

[
  {
    "sequenceChain": "PGVPQCKALYAYDAQDTDELSFNANDIIDIIKEDPSGWWTGRLRGKQGLFPNNYVTKI",
    "measured": -0.102
  },
  {
    "sequenceChain": "PQVPQCKALYAYDAQDDDELSFNANDIIDIIKEDPSGWWTGRLRGKQGLFPNNYVTKI",
    "measured": -0.007
  },
  {
    "sequenceChain": "PQVPQCKALYAYDAHDTDELSFNANDIIDIIKEDPSGWWTGRLRGKQGLFPNNYVTKI",
    "measured": -0.28
  },
  {
    "sequenceChain": "PQVPQCKALYAYDAQDTDELSFNANDIIDIIKEDPSGWWTGRLRGKQGLAPNNYVTKI",
    "measured": -0.841
  },
  {
    "sequenceChain": "PQVPQCKALYAYDAQDTDELSFNANDIIDIIKEDPSGWWTGRLRGKQGLFPNNYVTKL",
    "measured": -0.091
  },
  {
    "sequenceChain": "PQVPQCKALYAYDAQKTDELSFNANDIIDIIKEDPSGWWTGRLRGKQGLFPNNYVTKI",
    "measured": -0.069
  }
]
